# EXPERIMENTAL TARGET: Nav1.5 (Homo sapiens)
# ASSAY OVERVIEW: Nav isoform selectivity, Nav1.5
Rule: Nav isoform inhibition (%) Nav1.5 under 80% gives not met, otherwise met.

COMPOUND	LABEL CLASS
O=C(NCc1noc(-c2c3ccccc3nn2CCn2ccnc2)n1)c1cccc(OC(F)(F)F)c1 [Example 14]	met
COc1cccc(C(=O)NCc2noc(-c3c4ccccc4nn3CCn3ccnc3)n2)c1OC [Example 6]	met
COc1cccc(C(=O)NCc2noc(-c3nn(CCn4ccnc4)c4ccccc34)n2)c1OC [Example 30]	not met
O=C(NCc1noc(-c2c3ccccc3nn2CCn2ccnc2)n1)c1ccc2ccccc2c1 [Example 11]	met
O=C(NCc1noc(-c2c3ccccc3nn2CCn2ccnc2)n1)c1cccc(F)c1F [Example 10]	met

----------
# EXPERIMENTAL TARGET: Nav1.3 (Homo sapiens, UniProt Q9NY46)
# ASSAY OVERVIEW: Nav isoform selectivity, Nav1.3
# Type: cell-based
# Parameters: concentration or dose not given beside the values
Rule: Nav isoform inhibition (%) Nav1.3 under 40% gives no, otherwise yes.

MOLECULE	LABEL CLASS
COc1cccc(C(=O)NCc2noc(-c3nn(CCn4ccnc4)c4ccccc34)n2)c1OC	no
O=C(NCc1noc(-c2c3ccccc3nn2CCn2ccnc2)n1)c1ccc2ccccc2c1	yes
COc1cccc(C(=O)NCc2noc(-c3c4ccccc4nn3CCn3ccnc3)n2)c1OC	yes
O=C(NCc1noc(-c2c3ccccc3nn2CCn2ccnc2)n1)c1cccc(F)c1F	yes

----------
# EXPERIMENTAL TARGET: UniProt:Q15858
# Sequence (Q15858 whole entry, canonical isoform): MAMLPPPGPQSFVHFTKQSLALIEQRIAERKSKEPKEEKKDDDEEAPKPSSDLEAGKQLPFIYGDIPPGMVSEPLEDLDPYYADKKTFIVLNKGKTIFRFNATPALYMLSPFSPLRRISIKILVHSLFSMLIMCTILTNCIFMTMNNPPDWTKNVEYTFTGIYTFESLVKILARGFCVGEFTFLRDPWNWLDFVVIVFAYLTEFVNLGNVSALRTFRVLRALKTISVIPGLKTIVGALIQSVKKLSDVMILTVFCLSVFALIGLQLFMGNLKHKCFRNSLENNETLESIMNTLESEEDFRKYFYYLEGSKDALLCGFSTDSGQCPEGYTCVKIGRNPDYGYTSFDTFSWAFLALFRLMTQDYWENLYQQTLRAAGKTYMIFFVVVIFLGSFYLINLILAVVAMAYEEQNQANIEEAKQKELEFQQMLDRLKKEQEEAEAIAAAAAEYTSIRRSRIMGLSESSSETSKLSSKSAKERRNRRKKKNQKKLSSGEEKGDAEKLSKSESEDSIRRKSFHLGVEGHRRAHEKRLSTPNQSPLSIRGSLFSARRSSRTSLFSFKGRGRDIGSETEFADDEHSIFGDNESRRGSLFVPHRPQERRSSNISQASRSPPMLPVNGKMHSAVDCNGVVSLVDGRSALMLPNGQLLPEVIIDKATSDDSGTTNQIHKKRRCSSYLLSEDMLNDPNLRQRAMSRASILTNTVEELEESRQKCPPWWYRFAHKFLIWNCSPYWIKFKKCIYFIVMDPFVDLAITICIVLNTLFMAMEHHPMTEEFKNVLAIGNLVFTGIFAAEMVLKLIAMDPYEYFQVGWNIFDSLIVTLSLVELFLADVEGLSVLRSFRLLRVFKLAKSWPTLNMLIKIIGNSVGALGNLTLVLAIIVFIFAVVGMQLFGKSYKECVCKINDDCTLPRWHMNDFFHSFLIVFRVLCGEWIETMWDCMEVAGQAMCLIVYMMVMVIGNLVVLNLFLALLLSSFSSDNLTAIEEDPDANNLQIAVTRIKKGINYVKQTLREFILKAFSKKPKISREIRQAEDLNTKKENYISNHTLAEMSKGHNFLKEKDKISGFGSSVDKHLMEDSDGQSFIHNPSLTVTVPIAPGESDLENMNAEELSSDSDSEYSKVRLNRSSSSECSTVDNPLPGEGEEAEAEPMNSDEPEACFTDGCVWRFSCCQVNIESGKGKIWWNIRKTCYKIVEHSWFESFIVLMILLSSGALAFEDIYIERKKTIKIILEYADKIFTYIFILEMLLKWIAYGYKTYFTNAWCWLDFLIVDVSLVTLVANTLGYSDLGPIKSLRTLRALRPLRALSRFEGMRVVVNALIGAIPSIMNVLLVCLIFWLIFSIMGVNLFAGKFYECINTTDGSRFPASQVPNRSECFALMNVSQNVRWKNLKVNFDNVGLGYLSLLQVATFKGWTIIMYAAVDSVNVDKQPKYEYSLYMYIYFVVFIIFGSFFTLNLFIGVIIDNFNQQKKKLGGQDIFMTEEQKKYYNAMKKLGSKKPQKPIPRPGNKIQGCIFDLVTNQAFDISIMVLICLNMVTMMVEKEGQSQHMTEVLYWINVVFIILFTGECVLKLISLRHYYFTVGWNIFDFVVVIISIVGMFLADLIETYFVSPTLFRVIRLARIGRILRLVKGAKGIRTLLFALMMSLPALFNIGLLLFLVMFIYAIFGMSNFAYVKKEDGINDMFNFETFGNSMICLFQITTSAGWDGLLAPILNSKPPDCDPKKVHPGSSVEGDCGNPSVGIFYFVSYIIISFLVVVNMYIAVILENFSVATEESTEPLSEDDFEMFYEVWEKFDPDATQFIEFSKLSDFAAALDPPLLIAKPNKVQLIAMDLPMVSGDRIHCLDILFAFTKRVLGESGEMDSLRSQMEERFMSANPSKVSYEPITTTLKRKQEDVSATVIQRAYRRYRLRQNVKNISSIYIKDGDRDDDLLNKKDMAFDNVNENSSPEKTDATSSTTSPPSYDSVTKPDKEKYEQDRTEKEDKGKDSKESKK
# ASSAY OVERVIEW: Nav isoform selectivity, Nav1.7
# Assay type: cell-based
# Design: concentration or dose not given beside the values
Nav isoform inhibition (%) Nav1.7 overview
PROPERTY MEASURED: Nav isoform inhibition (%) Nav1.7

COMPOUND	VALUE MEASURED
O=C(NCc1noc(-c2c3ccccc3nn2CCn2ccnc2)n1)c1cccc(OC(F)(F)F)c1 [Example 14]	46
O=C(NCc1noc(-c2c3ccccc3nn2CCn2ccnc2)n1)c1ccc2ccccc2c1 [Example 11]	33
O=C(NCc1noc(-c2c3ccccc3nn2CCn2ccnc2)n1)c1cccc(F)c1F [Example 10]	81
COc1cccc(C(=O)NCc2noc(-c3nn(CCn4ccnc4)c4ccccc34)n2)c1OC [Example 30]	94
COc1cccc(C(=O)NCc2noc(-c3c4ccccc4nn3CCn3ccnc3)n2)c1OC [Example 6]	96
COc1ccc(C(=O)NCc2noc(-c3nn(CCn4ccnc4)c4ccccc34)n2)c(OC)c1OC [Example 16]	96

----------
# EXPERIMENTAL TARGET: Nav1.2 (Homo sapiens)
# ASSAY OVERVIEW: Nav isoform selectivity, Nav1.2 (EP)
# Type: cell-based
# Parameters: concentration or dose not given beside the values
# TEST CONTEXT: EP
PROPERTY MEASURED: Nav isoform inhibition (%) Nav1.2 EP

MOLECULE	PROPERTY MEASURED	VALUE MEASURED
COc1cccc(C(=O)NCc2noc(-c3c4ccccc4nn3CCn3ccnc3)n2)c1OC	Nav isoform inhibition (%) Nav1.2 EP	24.4
COc1ccc(C(=O)NCc2noc(-c3nn(CCn4ccnc4)c4ccccc34)n2)c(OC)c1OC	Nav isoform inhibition (%) Nav1.2 EP	1.1
COc1cccc(C(=O)NCc2noc(-c3nn(CCn4ccnc4)c4ccccc34)n2)c1OC	Nav isoform inhibition (%) Nav1.2 EP	0.1
O=C(NCc1noc(-c2c3ccccc3nn2CCn2ccnc2)n1)c1cccc(OC(F)(F)F)c1	Nav isoform inhibition (%) Nav1.2 EP	98.5

----------
Nav isoform inhibition (%) Nav1.8 overview
# EXPERIMENTAL TARGET: Nav1.8 (Homo sapiens, UniProt Q9Y5Y9)
# ASSAY OVERVIEW: Nav isoform selectivity, Nav1.8
# Format: cell-based
# Parameters: concentration or dose not given beside the values
PROPERTY MEASURED: Nav isoform inhibition (%) Nav1.8

MOLECULE	UNITS SYMBOL	VALUE MEASURED
COc1cccc(C(=O)NCc2noc(-c3nn(CCn4ccnc4)c4ccccc34)n2)c1OC	%	62
COc1cccc(C(=O)NCc2noc(-c3c4ccccc4nn3CCn3ccnc3)n2)c1OC	%	87
O=C(NCc1noc(-c2c3ccccc3nn2CCn2ccnc2)n1)c1cccc(OC(F)(F)F)c1	%	94
O=C(NCc1noc(-c2c3ccccc3nn2CCn2ccnc2)n1)c1cccc(F)c1F	%	84
O=C(NCc1noc(-c2c3ccccc3nn2CCn2ccnc2)n1)c1ccc2ccccc2c1	%	91
COc1ccc(C(=O)NCc2noc(-c3nn(CCn4ccnc4)c4ccccc34)n2)c(OC)c1OC	%	48

----------
# EXPERIMENTAL TARGET: Nav1.2 (Homo sapiens, UniProt Q99250)
# Sequence (Q99250 whole entry, canonical isoform): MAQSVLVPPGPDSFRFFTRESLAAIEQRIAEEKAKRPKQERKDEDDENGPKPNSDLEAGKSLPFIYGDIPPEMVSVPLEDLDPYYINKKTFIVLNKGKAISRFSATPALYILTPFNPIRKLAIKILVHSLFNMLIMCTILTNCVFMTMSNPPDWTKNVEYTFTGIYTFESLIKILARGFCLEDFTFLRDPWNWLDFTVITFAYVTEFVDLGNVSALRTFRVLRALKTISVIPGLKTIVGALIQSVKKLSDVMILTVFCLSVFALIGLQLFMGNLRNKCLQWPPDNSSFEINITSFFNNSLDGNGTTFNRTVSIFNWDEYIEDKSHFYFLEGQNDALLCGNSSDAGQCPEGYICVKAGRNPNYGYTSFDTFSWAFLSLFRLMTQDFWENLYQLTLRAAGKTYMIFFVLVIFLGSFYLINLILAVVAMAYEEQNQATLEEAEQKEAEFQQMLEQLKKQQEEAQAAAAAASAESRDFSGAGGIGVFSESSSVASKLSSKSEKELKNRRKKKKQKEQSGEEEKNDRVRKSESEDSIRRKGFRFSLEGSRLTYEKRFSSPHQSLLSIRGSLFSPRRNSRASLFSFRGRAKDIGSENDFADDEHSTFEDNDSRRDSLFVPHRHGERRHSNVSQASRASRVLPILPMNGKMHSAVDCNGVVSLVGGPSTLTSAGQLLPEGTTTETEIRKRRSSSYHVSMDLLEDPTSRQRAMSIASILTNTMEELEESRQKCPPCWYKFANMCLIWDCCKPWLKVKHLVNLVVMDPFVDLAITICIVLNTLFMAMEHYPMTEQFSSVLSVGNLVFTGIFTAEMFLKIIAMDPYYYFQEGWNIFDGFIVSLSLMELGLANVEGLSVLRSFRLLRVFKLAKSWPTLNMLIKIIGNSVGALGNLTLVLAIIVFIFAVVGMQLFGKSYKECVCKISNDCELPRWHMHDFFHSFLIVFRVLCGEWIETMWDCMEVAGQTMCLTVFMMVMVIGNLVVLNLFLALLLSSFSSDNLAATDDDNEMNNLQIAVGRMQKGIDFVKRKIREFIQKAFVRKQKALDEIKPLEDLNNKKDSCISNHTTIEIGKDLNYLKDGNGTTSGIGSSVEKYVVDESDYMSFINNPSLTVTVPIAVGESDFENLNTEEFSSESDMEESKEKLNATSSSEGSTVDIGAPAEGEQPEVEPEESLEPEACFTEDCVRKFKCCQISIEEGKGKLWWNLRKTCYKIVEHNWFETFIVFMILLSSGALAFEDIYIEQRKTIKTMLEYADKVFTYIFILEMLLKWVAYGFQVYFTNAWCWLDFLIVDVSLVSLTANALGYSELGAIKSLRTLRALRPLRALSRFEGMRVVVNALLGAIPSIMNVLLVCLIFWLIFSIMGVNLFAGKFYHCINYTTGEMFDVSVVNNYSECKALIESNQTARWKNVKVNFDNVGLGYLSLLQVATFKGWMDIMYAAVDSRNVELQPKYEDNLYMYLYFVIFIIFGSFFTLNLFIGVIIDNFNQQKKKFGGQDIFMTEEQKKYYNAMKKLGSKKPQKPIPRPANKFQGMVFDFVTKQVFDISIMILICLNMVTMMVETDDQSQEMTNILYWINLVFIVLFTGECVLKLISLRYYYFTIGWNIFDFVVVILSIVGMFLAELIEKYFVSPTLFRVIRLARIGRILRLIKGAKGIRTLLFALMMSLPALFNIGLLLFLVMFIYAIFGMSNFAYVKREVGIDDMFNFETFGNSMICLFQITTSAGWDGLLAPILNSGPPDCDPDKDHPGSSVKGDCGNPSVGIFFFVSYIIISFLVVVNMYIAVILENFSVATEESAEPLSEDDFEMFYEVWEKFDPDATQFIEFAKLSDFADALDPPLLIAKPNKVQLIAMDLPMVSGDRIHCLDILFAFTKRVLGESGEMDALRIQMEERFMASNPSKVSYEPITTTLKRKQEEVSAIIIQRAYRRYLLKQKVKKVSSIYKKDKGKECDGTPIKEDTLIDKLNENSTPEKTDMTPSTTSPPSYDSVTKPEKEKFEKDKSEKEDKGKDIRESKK
# ASSAY OVERVIEW: Nav isoform selectivity, Nav1.2 (EP)
# Type: cell-based
# Parameters: concentration or dose not given beside the values
# TEST CONTEXT: EP UD

MOLECULE	UNITS SYMBOL	Nav isoform inhibition (%) Nav1.2 EP UD
COc1ccc(C(=O)NCc2noc(-c3nn(CCn4ccnc4)c4ccccc34)n2)c(OC)c1OC	%	1.5
COc1cccc(C(=O)NCc2noc(-c3nn(CCn4ccnc4)c4ccccc34)n2)c1OC	%	6.4
COc1cccc(C(=O)NCc2noc(-c3c4ccccc4nn3CCn3ccnc3)n2)c1OC	%	24.1

----------
Nav isoform inhibition (%) Nav1.1 overview
# EXPERIMENTAL TARGET: Nav1.1 (Homo sapiens)
# ASSAY OVERVIEW: Nav isoform selectivity, Nav1.1
# Assay type: cell-based
PROPERTY MEASURED: Nav isoform inhibition (%) Nav1.1

MOLECULE	EXPERIMENTAL TARGET	VALUE MEASURED
O=C(NCc1noc(-c2c3ccccc3nn2CCn2ccnc2)n1)c1cccc(OC(F)(F)F)c1	Nav1.1 (Homo sapiens)	96%
O=C(NCc1noc(-c2c3ccccc3nn2CCn2ccnc2)n1)c1cccc(F)c1F	Nav1.1 (Homo sapiens)	54%
COc1ccc(C(=O)NCc2noc(-c3nn(CCn4ccnc4)c4ccccc34)n2)c(OC)c1OC	Nav1.1 (Homo sapiens)	24%
COc1cccc(C(=O)NCc2noc(-c3nn(CCn4ccnc4)c4ccccc34)n2)c1OC	Nav1.1 (Homo sapiens)	26%
O=C(NCc1noc(-c2c3ccccc3nn2CCn2ccnc2)n1)c1ccc2ccccc2c1	Nav1.1 (Homo sapiens)	83%
COc1cccc(C(=O)NCc2noc(-c3c4ccccc4nn3CCn3ccnc3)n2)c1OC	Nav1.1 (Homo sapiens)	56%
